TESTED_SYSTEM: T1, recombinant hCD70 (CD70(h)-muCD8 fusion Protein, Ancell, cat. no. ANC-537-030) (mouse; human, UniProt P01731 28-196; P32970 39-193, biotin (position not stated; detected with Streptavidin-HRP, bound to streptavidin beads))
T1 construct: Bought fusion protein; also called CD8-hCD70; biotin-hCD8-hCD70 recombinant protein
T1 sequence (P01731 other isoform, or with tags, fused parts or gaps): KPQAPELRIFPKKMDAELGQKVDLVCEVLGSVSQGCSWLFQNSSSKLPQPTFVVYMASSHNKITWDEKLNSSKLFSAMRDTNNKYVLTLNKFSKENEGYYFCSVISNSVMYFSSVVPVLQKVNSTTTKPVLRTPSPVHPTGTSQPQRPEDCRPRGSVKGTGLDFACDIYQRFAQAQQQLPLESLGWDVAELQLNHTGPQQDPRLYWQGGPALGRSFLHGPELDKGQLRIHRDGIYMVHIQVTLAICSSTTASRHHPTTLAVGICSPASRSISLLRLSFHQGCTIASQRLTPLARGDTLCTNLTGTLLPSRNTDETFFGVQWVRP
MEASUREMENT_NOTES: cell-based competition ELISA: biotinylated CD70(h)-muCD8 (0.5 ug/ml) binding to CHO-K1.hCD27 cells, Streptavidin-HRP
pIC50: −log10 of the molar value.
OBSERVATION_TYPE: pIC50

Reported pIC50 ( hCD70.23 (antibody, IgG1, V domains shown, Mouse monoclonal purified from hybridoma supernatant) VH: QVQLQQSGPEVVRPGVSVKISCKGSGYTFTDYAMHWVKQSHAKSLEWIGVISTYNGNTNYNQKFKGKATMTVDKSSSTAYMELARLTSEDSAIYYCARDYLDYWGQGTTLTVSS VL: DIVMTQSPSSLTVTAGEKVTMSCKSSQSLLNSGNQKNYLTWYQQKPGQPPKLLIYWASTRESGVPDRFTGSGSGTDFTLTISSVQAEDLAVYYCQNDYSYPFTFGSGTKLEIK ) = < 6.48

Reported pIC50 ( hCD70.21 (antibody, IgG1, V domains shown, Mouse monoclonal purified from hybridoma supernatant) VH: QVQLQQPGAELVKPGTSVKLSCKASGYNFTSYWINWVKLRPGQGLEWIGDIYPGSGSTNYNEKFKSKATLTVDTSSSTAYMQLSSLASEDSALYYCARGHYGSSYGFDYWGQGTTLTVSS VL: DIVLTQSPASLAVSLGQRATISCRASKSVSTSGYSYMHWYQQKPGQPPKLLIYLASNLESGVPARFSGSGSGTDFTLNIHPVEEEDAATYYCQHSRELPLTFGAGTKLELK ) = < 6.48

Reported pIC50 ( hCD70.36 (antibody, IgG1, V domains shown, Mouse monoclonal purified from hybridoma supernatant) VH: EVQLQQSGPELVKTGASVKISCKASGYSFTGYYMHWVKQSHGKSLEWIGYISCYNGATSYNQKFKGKATFTVDTSSSTAYMQFNSLTSEDSAVYYCARGGNWDVEYAMDYWGQGTSVTVSS VL: DIVLTQSPASLAVSLGQRATISCRASKSVSTSGYSYMHWYQQKPGQPPKLLIYLASNLESGVPARFSGSGSGTDFTLNIHPVEEEDAATYYCQHSRELPFTFGSGTKLEIK ) = < 6.48
